Each entry below carries its reported pIC50.
Molecular target: KRas G12D (Homo sapiens (Human), UniProt P01116, G12D)
Experiment: KRas G12D Binding Assay (TR-FRET displacement of Cy5 labelled tracer)
Settings: GDP-loaded KRAS G12D (amino acids 1:169), 60 minute incubation at 22° C.
Sequence (P01116 other isoform, or with tags, fused parts or gaps G12D): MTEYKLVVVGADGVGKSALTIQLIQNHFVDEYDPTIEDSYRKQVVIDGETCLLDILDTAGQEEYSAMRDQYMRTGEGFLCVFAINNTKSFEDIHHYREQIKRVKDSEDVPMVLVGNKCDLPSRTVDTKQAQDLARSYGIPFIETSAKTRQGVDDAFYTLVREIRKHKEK
Keep in mind that pIC50 stands for -log10 of concentration in molar terms.

[[record]]
smiles_entry = "C#Cc1cccc2cccc(-c3ncc4c(N5C[C@H]6CC[C@@H](C5)N6)nc(OCC56CCCN5CCC6)nc4c3F)c12"
test_readout = "pIC50"
numeric_result = 8.96

[[record]]
smiles_entry = "Cn1ccc(CCOc2nc(N3C[C@H]4CC[C@@H](C3)N4)c3cnc(-c4cccc5cccc(Cl)c45)c(F)c3n2)n1"
test_readout = "pIC50"
numeric_result = 5.30

[[record]]
smiles_entry = "Oc1ccc(OC(F)(F)F)c(-c2ncc3c(N4C[C@H]5CC[C@@H](C4)N5)nc(OCC45CCCN4CCC5)nc3c2F)c1"
test_readout = "pIC50"
numeric_result = 9.15


Would you kindly share the measured pIC50 for OCC(CO)COc1nc(N2C[C@H]3CC[C@@H](C2)N3)c2cnc(-c3cccc4cccc(Cl)c34)c(F)c2n1 ?
6.32

Would you kindly share the measured pIC50 for CNC(=O)O[C@@H]1CN2CCC[C@]2(COc2nc(N3C[C@H]4CC[C@@H](C3)N4)c3cnc(-c4cccc5cccc(Cl)c45)c(F)c3n2)C1 ?
7.55

Would you kindly share the measured pIC50 for CN1CCC[C@H]1COc1nc(N2C[C@H]3CC[C@@H](C2)N3)c2cnc(-c3cccc4ccccc34)c(F)c2n1 ?
6.16

Would you kindly share the measured pIC50 for Fc1c(-c2cccc3cccc(Br)c23)ncc2c(N3C[C@H]4CC[C@@H](C3)N4)nc(OCC34CCCN3CCC4)nc12 ?
8.92

###

Each entry below carries its reported pIC50.
Biological target: KRas G12D (Homo sapiens (Human), UniProt P01116, G12D)
Assay: KRas G12D Binding Assay (TR-FRET displacement of Cy5 labelled tracer)
Details: GDP-loaded KRAS G12D (amino acids 1:169), 60 minute incubation at 22° C.
Keep in mind that pIC50 stands for -log10 of concentration in molar terms.

[[record]]
compound = "CC(C)(F)c1ccccc1-c1ncc2c(N3CC4CCC(C3)N4)nc(OC[C@@]34CCCN3C[C@H](F)C4)nc2c1F (stereo in doubt)"
test_readout = "pIC50"
numeric_result = 6.25

[[record]]
compound = "Fc1c(-c2ccccc2OC(F)F)ncc2c(N3C[C@H]4CC[C@@H](C3)N4)nc(OCC34CCCN3CCC4)nc12"
test_readout = "pIC50"
numeric_result = 6.45

[[record]]
compound = "C#Cc1c(F)ccc2cccc(-c3ncc4c(N5C[C@H]6CC[C@@H](C5)N6)nc(OC[C@@]56CCCN5C[C@H](F)C6)nc4c3F)c12"
test_readout = "pIC50"
numeric_result = 9.05

[[record]]
compound = "N=C(N)NCCOc1nc(N2CC3CCC(C2)N3)c2cnc(-c3cccc4cccc(Cl)c34)c(F)c2n1"
test_readout = "pIC50"
numeric_result = 6.63

[[record]]
compound = "Oc1cc(-c2ncc3c(N4C[C@H]5CC[C@@H](C4)N5)nc(OCCc4ccccn4)nc3c2F)c2ccccc2c1"
test_readout = "pIC50"
numeric_result = 6.30

[[record]]
compound = "CC(C)c1ccccc1-c1ncc2c(N3C[C@H]4CC[C@@H](C3)N4)nc(OCC34CCCN3CCC4)nc2c1F"
test_readout = "pIC50"
numeric_result = 6.69


Turning to the following compound.
Would you kindly share the measured pIC50 for Cc1cccc2cccc(-c3ncc4c(N5C[C@H]6CC[C@@H](C5)N6)nc(OCCc5cccnc5)nc4c3F)c12 ?
5.09

###

Molecular target: KRas G12D (Homo sapiens (Human), UniProt P01116, G12D)
Experiment: KRas G12D Surface Plasmon Resonance (SPR) Binding Assay
Details: Biacore T200, immobilized biotinylated KRAS protein, 1:1 binding model
Sequence (P01116-2 other isoform, or with tags, fused parts or gaps G12D): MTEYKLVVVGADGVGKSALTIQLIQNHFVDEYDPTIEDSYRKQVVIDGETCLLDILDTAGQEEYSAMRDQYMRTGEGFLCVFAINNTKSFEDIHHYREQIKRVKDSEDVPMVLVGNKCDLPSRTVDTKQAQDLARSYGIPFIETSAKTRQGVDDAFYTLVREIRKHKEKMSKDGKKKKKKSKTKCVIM
Binary call on Kd with cut-off 500 nM: strictly below means yes, and equality or higher means no.

Solved cases (5 shown):
[[record]]
molecule = "Cn1ccnc1CCOc1nc(N2C[C@H]3CC[C@@H](C2)N3)c2cnc(-c3cccc4ccccc34)c(F)c2n1"
class_name = "no"

[[record]]
molecule = "CN1C[C@H](C(F)(F)F)C[C@H]1COc1nc(N2C[C@H]3CC[C@@H](C2)N3)c2cnc(-c3cc(O)cc4ccccc34)c(F)c2n1"
class_name = "yes"

[[record]]
molecule = "Cc1nccn1CCOc1nc(N2CC3CCC(C2)N3)c2cnc(-c3cc(O)cc4ccccc34)c(F)c2n1"
class_name = "yes"

[[record]]
molecule = "OC[C@@H]1CCCN1c1nc(N2C[C@H]3CC[C@@H](C2)N3)c2cnc(-c3cc(O)cc4ccccc34)c(F)c2n1"
class_name = "no"

[[record]]
molecule = "CC1CCCc2cccc(-c3ncc4c(N5CC6CCC(C5)N6)nc(OC[C@@H]5CCCN5C)nc4c3F)c21 (stereo partly shown)"
class_name = "yes"


Answer whether the molecule Cn1ccc(COc2nc(N3C[C@H]4CC[C@@H](C3)N4)c3cnc(-c4cc(O)cc5ccccc45)c(F)c3n2)n1 has Kd strictly less than 500 nM
no

###

Target: KRas G12D (Homo sapiens (Human), UniProt P01116, G12D)
Assay: KRas G12D Surface Plasmon Resonance (SPR) Binding Assay
Details: Biacore T200, immobilized biotinylated KRAS protein, 1:1 binding model
Description: Briefly, 1L of 1.05X HBS-Mg buffer (262.5 mM Bioultra Hepes, pH 7.5, 157.5 mM NaCl, 105 mM MgCl2, 0.525 mM TCEP, 0.0305% Brij-35) was prepared and filter sterilized using a 0.22 μm bottle top filter. Approximately 50 mL of 1.05X HBS-Mg buffer was removed and saved for future dilutions. […] All compounds were diluted to 10 mM in 100% DMSO prior to being diluted 20X in 1.05X buffer. […] ND=not determined.
Each entry below carries its reported pKd.
Keep in mind that pKd stands for -log10 of concentration in molar terms.

Below, 3 compounds whose answers are already recorded.
[[record]]
compound = "Oc1cc(-c2ncc3c(N4C[C@H]5CC[C@@H](C4)N5)nc(OCCc4ccccc4)nc3c2F)c2ccccc2c1 [Example 96]"
numeric_result = 6.15

[[record]]
compound = "Nc1cccc(CCOc2nc(N3C[C@H]4CC[C@@H](C3)N4)c3cnc(-c4cc(O)cc5ccccc45)c(F)c3n2)n1 [Example 139]"
numeric_result = 7.60

[[record]]
compound = "Fc1c(-c2cccc3cccc(Cl)c23)ncc2c(N3C[C@H]4CC[C@@H](C3)N4)nc(OC3CCc4cn[nH]c4C3)nc12 (stereo partly shown) [Example 143]"
numeric_result = 4.83


Turning to the following compound.
Would you kindly share the measured pKd for Oc1cc(-c2ncc3c(N4C[C@H]5CC[C@@H](C4)N5)nc(OCC4(C(F)(F)F)CCCC4)nc3c2F)c2ccccc2c1 [Example 46] ?
6.10

###

Target: KRas G12D (Homo sapiens (Human), UniProt P01116, G12D)
Assay: KRas G12D Binding Assay (TR-FRET displacement of Cy5 labelled tracer)
Conditions: GDP-loaded KRAS G12D (amino acids 1:169), 60 minute incubation at 22° C.
TEST READOUT: pIC50
Keep in mind that pIC50 stands for -log10 of concentration in molar terms.

Below, 5 compounds whose answers are already recorded.
[[record]]
compound = "CC1(C)CN2CCCC2(COc2nc(N3CC4CCC(C3)N4)c3cnc(-c4cccc5cccc(Cl)c45)c(F)c3n2)C1 (stereo not shown)"
numeric_result = 7.06

[[record]]
compound = "Cc1cc(-c2ncc3c(N4CC5CCC(C4)N5)nc(OC[C@@]45CCCN4C[C@H](F)C5)nc3c2F)c2cn[nH]c2c1 (stereo in doubt)"
numeric_result = 6.18

[[record]]
compound = "Fc1c(-c2c(OC(F)(F)F)ccc3[nH]ncc23)ncc2c(N3C[C@H]4CC[C@@H](C3)N4)nc(OCC34CCCN3CCC4)nc12"
numeric_result = 8.19

[[record]]
compound = "Fc1c(-c2cccc3c2OC(F)(F)O3)ncc2c(N3C[C@H]4CC[C@@H](C3)N4)nc(OCC34CCCN3CCC4)nc12"
numeric_result = 6.33

[[record]]
compound = "Fc1c(-c2c(C(F)(F)F)ccc3[nH]ncc23)ncc2c(N3CC4CCC(C3)N4)nc(OCC34CCCN3C[C@H](F)C4)nc12 (mixture of isomers)"
numeric_result = 7.98


Would you kindly share the measured pIC50 for CC(C)c1ccccc1-c1ncc2c(N3CC4CCC(C3)N4)nc(OCC34CCCN3C[C@H](F)C4)nc2c1F (stereo partly shown) ?
7.81

Would you kindly share the measured pIC50 for NCCOc1nc(N2C[C@H]3CC[C@@H](C2)N3)c2cnc(-c3cccc4cccc(Cl)c34)c(F)c2n1 ?
5.08

Every entry's value here was drawn from patent US20230279025A1.
